B1: MLL5 (parent)
chain: HDDGYMICCDKCSVWQHIDCMGID

Variants of: B1
Assay: protein stability index of a GFP-peptide fusion (GPS, HEK-293T) (PSI 1-6); higher = more stable;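 also: lentivirally expressed fusions sorted by FACS into six bins by GFP to DsRed ratio, PSI derived from sequencing read proportions per bin multiplied by bin number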
Conditions: c terminus: a fixed tail appended
Measured protein stability index, listed per entry.
// return a plain number; no unit text

The following variants have reported results that may help.
protein stability index measured on D2Y = 1.93

protein stability index measured on S13V = 1.85

protein stability index measured on D3L = 1.01

protein stability index measured on G4L = 1.64

protein stability index measured on D19M = 2

Further cases:
protein stability index measured on G4I = 1.51

protein stability index measured on I18M = 3.14

protein stability index measured on C8F = 1.56

protein stability index measured on C12K = 3.46

protein stability index measured on C9K = 2.85

protein stability index measured on I18L = 2.28
